Biological target: recombinant human cannabinoid 1 receptor (CB1) (Homo sapiens)
Sequence (P21554 whole entry): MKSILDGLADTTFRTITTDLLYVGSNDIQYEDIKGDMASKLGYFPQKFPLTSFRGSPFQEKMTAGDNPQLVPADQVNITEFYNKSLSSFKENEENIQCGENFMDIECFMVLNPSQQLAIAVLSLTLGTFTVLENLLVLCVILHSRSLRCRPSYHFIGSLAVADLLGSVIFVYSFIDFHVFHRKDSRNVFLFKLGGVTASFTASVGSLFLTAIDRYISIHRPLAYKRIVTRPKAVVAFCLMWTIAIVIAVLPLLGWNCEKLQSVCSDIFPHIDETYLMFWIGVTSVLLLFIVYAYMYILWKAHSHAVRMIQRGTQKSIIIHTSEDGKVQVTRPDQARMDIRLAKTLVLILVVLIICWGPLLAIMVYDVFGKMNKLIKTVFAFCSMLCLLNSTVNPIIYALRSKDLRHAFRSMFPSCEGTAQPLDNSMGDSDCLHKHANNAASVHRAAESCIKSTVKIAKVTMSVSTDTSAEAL
Experiment: [35S]GTPγS binding assay, antagonism against WIN 55,212-2
Format: biochemical
Details: compound at 1 μM against WIN 55,212-2 dose response; CHO-CB1 membranes; 100% = effect of internal standard CB1-antagonist
Antagonism (%) overview
Report the figure in % without appending any unit label.

Consider the reported Antagonism (%) for these compounds:
>>> assay_value("C[C@@H]1C(C(=O)NN2CCc3ccccc32)=NN(c2ccc(Cl)cc2Cl)[C@H]1c1ccc(Br)cc1 (relative stereo) [Example 7]")
67
>>> assay_value("C[C@H]1C(C(=O)NN2CCc3ccccc32)=NN(c2ccc(Cl)cc2Cl)[C@H]1c1ccc(F)cc1 (relative stereo) [Example 8]")
48
>>> assay_value("C[C@H]1C(C(=O)NN2CCc3ccccc32)=NN(c2ccc(Cl)cc2Cl)[C@H]1c1ccc(Cl)cc1 [Example 3]")
70

Exam item: Record lookup: for recombinant human cannabinoid 1 receptor (CB1) (Homo sapiens), what Antagonism (%) belongs to CC1Cc2ccccc2N1NC(=O)C1=NN(c2ccc(Cl)cc2Cl)[C@@H](c2ccc(Cl)cc2)[C@H]1C (relative stereo) [Example 5] ?
Marked response: 16
